From: patent US11015061B2

# METHOD: Solubility in organic solvent (cyclopentanone)
# Format: physicochemical
# MEASUREMENT CONDITIONS: about 10 wt % dispersion, room temperature, 0.2 μm filter; no residue = 10 wt % or more
READOUT: Solubility to cyclopentanone (wt %)

Below: 5 compounds and their reported Solubility to cyclopentanone (wt %).
COMPOUND	Solubility to cyclopentanone (wt %)
[O]=[V+2].c1ccc(OCCOCCCCc2ccc(CCCCOCCOc3ccccc3)c3c2-c2nc-3nc3[n-]c(nc4nc(nc5[n-]c(n2)c2c(CCCCOCCOc6ccccc6)ccc(CCCCOCCOc6ccccc6)c52)-c2c(CCCCOCCOc5ccccc5)ccc(CCCCOCCOc5ccccc5)c2-4)c2c(CCCCOCCOc4ccccc4)ccc(CCCCOCCOc4ccccc4)c32)cc1	≥10% wt %
COCCCCCCCCc1ccc(CCCCCCCCOC)c2c1-c1nc-2nc2[n-]c(nc3nc(nc4[n-]c(n1)c1c(CCCCCCCCOC)ccc(CCCCCCCCOC)c41)-c1c(CCCCCCCCOC)ccc(CCCCCCCCOC)c1-3)c1c(CCCCCCCCOC)ccc(CCCCCCCCOC)c21.[O]=[V+2] [Comparative Example Compound (b), reference compound]	≤1% wt %
COCCCCc1ccc(CCCCOC)c2c1-c1nc-2nc2[n-]c(nc3nc(nc4[n-]c(n1)c1c(CCCCOC)ccc(CCCCOC)c41)-c1c(CCCCOC)ccc(CCCCOC)c1-3)c1c(CCCCOC)ccc(CCCCOC)c21.[Cu+2]	≥10% wt %
COc1cccc(OC)c1OCCCCc1ccc(CCCCOc2c(OC)cccc2OC)c2c1-c1nc-2nc2[n-]c(nc3nc(nc4[n-]c(n1)c1c(CCCCOc5c(OC)cccc5OC)ccc(CCCCOc5c(OC)cccc5OC)c41)-c1c(CCCCOc4c(OC)cccc4OC)ccc(CCCCOc4c(OC)cccc4OC)c1-3)c1c(CCCCOc3c(OC)cccc3OC)ccc(CCCCOc3c(OC)cccc3OC)c21.[Cu+2]	≥10% wt %
COc1cccc(OCCCCc2ccc(CCCCOc3cccc(OC)c3)c3c2-c2nc-3nc3[n-]c(nc4nc(nc5[n-]c(n2)c2c(CCCCOc6cccc(OC)c6)ccc(CCCCOc6cccc(OC)c6)c52)-c2c(CCCCOc5cccc(OC)c5)ccc(CCCCOc5cccc(OC)c5)c2-4)c2c(CCCCOc4cccc(OC)c4)ccc(CCCCOc4cccc(OC)c4)c32)c1.[O]=[V+2]	≥10% wt %

Given the entry [O]=[V+2].c1ccc(OCCCCc2ccc(CCCCOc3ccccc3)c3c2-c2nc-3nc3[n-]c(nc4nc(nc5[n-]c(n2)c2c(CCCCOc6ccccc6)ccc(CCCCOc6ccccc6)c52)-c2c(CCCCOc5ccccc5)ccc(CCCCOc5ccccc5)c2-4)c2c(CCCCOc4ccccc4)ccc(CCCCOc4ccccc4)c32)cc1 , report its measured Solubility to cyclopentanone (wt %).
≥10% wt %

* * *

# METHOD: Heat resistance test of laminated glass
# Assay type: physicochemical
# MEASUREMENT CONDITIONS: 200 hours at 100° C., absorbance integrated 400 to 900 nm
READOUT: ΔE (%) Heat resistance
Enter your answer as a number in %; do not include the unit.

ΔE (%) Heat resistance for COc1cccc(OC)c1OCCCCc1ccc(CCCCOc2c(OC)cccc2OC)c2c1-c1nc-2nc2[n-]c(nc3nc(nc4[n-]c(n1)c1c(CCCCOc5c(OC)cccc5OC)ccc(CCCCOc5c(OC)cccc5OC)c41)-c1c(CCCCOc4c(OC)cccc4OC)ccc(CCCCOc4c(OC)cccc4OC)c1-3)c1c(CCCCOc3c(OC)cccc3OC)ccc(CCCCOc3c(OC)cccc3OC)c21.[O]=[V+2] [Specific Example (1)-44] ?
3

* * *

# METHOD: Light fastness test of heat ray shielding film
# Assay type: physicochemical
# MEASUREMENT CONDITIONS: xenon light 200 hours at 550 W/h, absorbance integrated 400 to 900 nm
ΔE (%) Light fastness by entry:
Unit % implied. Number only.

Worked cases, ΔE (%) Light fastness given:
COMPOUND	UNITS	ΔE (%) Light fastness
COc1cccc(OCCCCc2ccc(CCCCOc3cccc(OC)c3)c3c2-c2nc-3nc3[n-]c(nc4nc(nc5[n-]c(n2)c2c(CCCCOc6cccc(OC)c6)ccc(CCCCOc6cccc(OC)c6)c52)-c2c(CCCCOc5cccc(OC)c5)ccc(CCCCOc5cccc(OC)c5)c2-4)c2c(CCCCOc4cccc(OC)c4)ccc(CCCCOc4cccc(OC)c4)c32)c1.[O]=[V+2] [Specific Example (1)-39]	%	4
Fc1ccccc1OCCCCc1ccc(CCCCOc2ccccc2F)c2c1-c1nc-2nc2[n-]c(nc3nc(nc4[n-]c(n1)c1c(CCCCOc5ccccc5F)ccc(CCCCOc5ccccc5F)c41)-c1c(CCCCOc4ccccc4F)ccc(CCCCOc4ccccc4F)c1-3)c1c(CCCCOc3ccccc3F)ccc(CCCCOc3ccccc3F)c21.[O]=[V+2] [Specific Example (1)-43]	%	2

State the recorded ΔE (%) Light fastness for this entry: [O]=[V+2].c1ccc(OCCCCc2ccc(CCCCOc3ccccc3)c3c2-c2nc-3nc3[n-]c(nc4nc(nc5[n-]c(n2)c2c(CCCCOc6ccccc6)ccc(CCCCOc6ccccc6)c52)-c2c(CCCCOc5ccccc5)ccc(CCCCOc5ccccc5)c2-4)c2c(CCCCOc4ccccc4)ccc(CCCCOc4ccccc4)c32)cc1 [Specific Example (1)-37]
5

* * *

# METHOD: Absorption spectrum of toluene solution (maximum absorption, gram absorption coefficient)
# Format: physicochemical
Listing of recorded maximum absorption by entry.
Please state the number and follow it with the unit.

Below, each entry is followed by its recorded maximum absorption result.
COMPOUND	maximum absorption
COCCCCCCCCc1ccc(CCCCCCCCOC)c2c1-c1nc-2nc2[n-]c(nc3nc(nc4[n-]c(n1)c1c(CCCCCCCCOC)ccc(CCCCCCCCOC)c41)-c1c(CCCCCCCCOC)ccc(CCCCCCCCOC)c1-3)c1c(CCCCCCCCOC)ccc(CCCCCCCCOC)c21.[O]=[V+2] [Comparative Example Compound (b), reference compound]	737.5 nm
COCCCCc1ccc(CCCCOC)c2c1-c1nc-2nc2[n-]c(nc3nc(nc4[n-]c(n1)c1c(CCCCOC)ccc(CCCCOC)c41)-c1c(CCCCOC)ccc(CCCCOC)c1-3)c1c(CCCCOC)ccc(CCCCOC)c21.[O]=[V+2]	734.0 nm
COc1cccc(OC)c1OCCCCc1ccc(CCCCOc2c(OC)cccc2OC)c2c1-c1nc-2nc2[n-]c(nc3nc(nc4[n-]c(n1)c1c(CCCCOc5c(OC)cccc5OC)ccc(CCCCOc5c(OC)cccc5OC)c41)-c1c(CCCCOc4c(OC)cccc4OC)ccc(CCCCOc4c(OC)cccc4OC)c1-3)c1c(CCCCOc3c(OC)cccc3OC)ccc(CCCCOc3c(OC)cccc3OC)c21.[O]=[V+2]	734.5 nm

Consider the compound COCCCCc1ccc(CCCCOC)c2c1-c1nc-2nc2[n-]c(nc3nc(nc4[n-]c(n1)c1c(CCCCOC)ccc(CCCCOC)c41)-c1c(CCCCOC)ccc(CCCCOC)c1-3)c1c(CCCCOC)ccc(CCCCOC)c21.[Cu+2] and give its measured maximum absorption.
705.5 nm

Let us now turn to COc1cccc(OCCCCc2ccc(CCCCOc3cccc(OC)c3)c3c2-c2nc-3nc3[n-]c(nc4nc(nc5[n-]c(n2)c2c(CCCCOc6cccc(OC)c6)ccc(CCCCOc6cccc(OC)c6)c52)-c2c(CCCCOc5cccc(OC)c5)ccc(CCCCOc5cccc(OC)c5)c2-4)c2c(CCCCOc4cccc(OC)c4)ccc(CCCCOc4cccc(OC)c4)c32)c1.[Cu+2]
706.5 nm

* * *

# METHOD: Light fastness test of laminated glass
# Format: physicochemical
# MEASUREMENT CONDITIONS: xenon light 200 hours at 550 W/h, absorbance integrated 400 to 900 nm
READOUT: ΔE (%) Light fastness
The reply should be a number in %, with the unit left off.

COCCCCc1ccc(CCCCOC)c2c1-c1nc-2nc2[n-]c(nc3nc(nc4[n-]c(n1)c1c(CCCCOC)ccc(CCCCOC)c41)-c1c(CCCCOC)ccc(CCCCOC)c1-3)c1c(CCCCOC)ccc(CCCCOC)c21.[O]=[V+2] 5
CC(C)(C)c1ccc(OCCCCc2ccc(CCCCOc3ccc(C(C)(C)C)cc3)c3c2-c2nc-3nc3[n-]c(nc4nc(nc5[n-]c(n2)c2c(CCCCOc6ccc(C(C)(C)C)cc6)ccc(CCCCOc6ccc(C(C)(C)C)cc6)c52)-c2c(CCCCOc5ccc(C(C)(C)C)cc5)ccc(CCCCOc5ccc(C(C)(C)C)cc5)c2-4)c2c(CCCCOc4ccc(C(C)(C)C)cc4)ccc(CCCCOc4ccc(C(C)(C)C)cc4)c32)cc1.[O]=[V+2] 2
[O]=[V+2].c1ccc(OCCOCCCCc2ccc(CCCCOCCOc3ccccc3)c3c2-c2nc-3nc3[n-]c(nc4nc(nc5[n-]c(n2)c2c(CCCCOCCOc6ccccc6)ccc(CCCCOCCOc6ccccc6)c52)-c2c(CCCCOCCOc5ccccc5)ccc(CCCCOCCOc5ccccc5)c2-4)c2c(CCCCOCCOc4ccccc4)ccc(CCCCOCCOc4ccccc4)c32)cc1 4
COc1cccc(OC)c1OCCCCc1ccc(CCCCOc2c(OC)cccc2OC)c2c1-c1nc-2nc2[n-]c(nc3nc(nc4[n-]c(n1)c1c(CCCCOc5c(OC)cccc5OC)ccc(CCCCOc5c(OC)cccc5OC)c41)-c1c(CCCCOc4c(OC)cccc4OC)ccc(CCCCOc4c(OC)cccc4OC)c1-3)c1c(CCCCOc3c(OC)cccc3OC)ccc(CCCCOc3c(OC)cccc3OC)c21.[O]=[V+2] 3

State the recorded ΔE (%) Light fastness for this entry: COc1cccc(OCCCCc2ccc(CCCCOc3cccc(OC)c3)c3c2-c2nc-3nc3[n-]c(nc4nc(nc5[n-]c(n2)c2c(CCCCOc6cccc(OC)c6)ccc(CCCCOc6cccc(OC)c6)c52)-c2c(CCCCOc5cccc(OC)c5)ccc(CCCCOc5cccc(OC)c5)c2-4)c2c(CCCCOc4cccc(OC)c4)ccc(CCCCOc4cccc(OC)c4)c32)c1.[O]=[V+2]
4
